# system-tested: Cytochrome P450 3A4 (Homo sapiens) (UniProt P08684)
# Sequence (P08684 whole entry, looked up): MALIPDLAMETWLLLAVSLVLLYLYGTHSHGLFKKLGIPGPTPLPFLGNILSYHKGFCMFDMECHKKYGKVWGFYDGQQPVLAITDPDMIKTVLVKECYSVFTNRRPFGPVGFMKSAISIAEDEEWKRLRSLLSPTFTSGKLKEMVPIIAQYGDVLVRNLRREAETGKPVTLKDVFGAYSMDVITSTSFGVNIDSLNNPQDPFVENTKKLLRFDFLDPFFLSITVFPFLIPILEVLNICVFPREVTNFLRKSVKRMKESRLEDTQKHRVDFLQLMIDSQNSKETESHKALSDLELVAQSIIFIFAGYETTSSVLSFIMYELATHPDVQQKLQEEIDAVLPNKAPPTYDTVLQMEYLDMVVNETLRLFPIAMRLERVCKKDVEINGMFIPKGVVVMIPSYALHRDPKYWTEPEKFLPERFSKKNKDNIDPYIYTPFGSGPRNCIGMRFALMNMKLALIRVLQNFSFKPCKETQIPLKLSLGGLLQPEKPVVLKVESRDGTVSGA
# assay-explanation: Cytochrome P450 Family 3 Subfamily A Member 4 (CYP3A4) small molecule antagonists: luciferase reporter qHTS assay (AID 1671201); also: nearly all actives have a fitted effect of over 50% in size
# test-settings: P450-Glo CYP3A4 enzyme, luciferin luminescence, 1 h; series mostly up to 115 µM
Inconclusive results are not listed. Active and inactive are the calls of the source. Calls follow the shape of the dose curve; as a rule, active = well fitted inhibition curve with a large enough effect in the repeat runs; inconclusive = weak or mixed curves; inactive = no such curve, though single readings can be large or run the other way.
Write down the outcome that applies. Available outcomes: yes = active, no = inactive

Example entries begin here.
INSERT INTO results (molecule, category_label) VALUES
  ('CC(=O)O[C@@H]1C(=O)O[C@@H]2[C@H]1OC(=O)[C@@H]2OC(C)=O', 'no'),
  ('CCCC(C)C', 'no'),
  ('Cc1ccc(C(=O)C(C)CN2CCCCC2)cc1 (stereo not given)', 'no'),
  ('C[C@@H](C1=C(CCN(C)C)Cc2ccccc21)c1ccccn1', 'no'),
  ('CCN1CCC[C@H]1CNC(=O)c1c(OC)ccc(Br)c1OC', 'no');

# ---- query molecule ----
Exercise: # fetch the recorded call for CC(C)(C)c1ccc(OCC2CO2)cc1 (stereo not given) here
Key: no
